- target-system: UniProtKB P30556
- procedure-summary: BRET β-arrestin2 biosensor assay, higher receptor expression (hAT1R 5 ng/well), HEK293 cells
- Assay type: cell-based
Mark condition met for BRET β-Arrestin2 High AT1R Expression Ymax (%) under 80%, condition not met if at or over.

compound	assigned-label
CCCCC1=NC2(CCCC2)C(=O)N1Cc1ccc(-c2cc(N3CCCC(F)(F)C3)ccc2-c2noc(=O)[nH]2)cc1 [Example 121]	condition not met

In plain terms, does CCCCC1=NC2(CCOC2)C(=O)N1Cc1ccc(-c2cc(-c3ccccc3F)ccc2-c2nnn[nH]2)cc1 (single isomer, unassigned) [Example 149] come in under 80% for BRET β-Arrestin2 High AT1R Expression Ymax (%)?
condition not met

----------
- target-system: hAT1R (Homo sapiens)
- procedure-summary: BRET β-arrestin2 biosensor assay, higher receptor expression (hAT1R 5 ng/well), HEK293 cells
- Assay type: cell-based
measured-quantity: BRET β-Arrestin2 High AT1R Expression Ymax (%)
Unit % implied. Number only.

CCc1nc2c(C)cc(C)nc2n1Cc1ccc(-c2cc(Nc3ccccc3)ccc2-c2nn[nH]n2)cc1 82.8
CCOc1nc2cccc(C(=O)O)c2n1Cc1ccc(-c2cc(-c3ccccc3)ccc2-c2nn[nH]n2)cc1 91.8
CCc1nc2c(C)cc(C)nc2n1Cc1ccc(-c2cc(-c3cc(F)cc(F)c3)ccc2-c2nn[nH]n2)cc1 90.6
CCc1nc2c(C)cc(C)nc2n1Cc1ccc(-c2cc(OC3CCCCC3)ccc2-c2nnn[nH]2)cc1 90.6
CCc1nc2c(C)cc(C)nc2n1Cc1ccc(-c2cc(Oc3ccccc3F)ccc2-c2noc(=O)[nH]2)cc1 86.5

Entry CCc1nc2c(C)cc(C)nc2n1Cc1ccc(-c2cc(Oc3ccc(F)cc3F)ccc2-c2nnn[nH]2)cc1 , BRET β-Arrestin2 High AT1R Expression Ymax (%) reported as 103.1

Entry CCCCC1=NC2(CCCC2)C(=O)N1Cc1ccc(-c2cc(N3CCC[C@@H](C)C3)ccc2-c2nn[nH]n2)cc1 , BRET β-Arrestin2 High AT1R Expression Ymax (%) reported as 12.4

----------
- target-system: hAT1R (Homo sapiens, UniProt P30556)
- Sequence (P30556 whole entry): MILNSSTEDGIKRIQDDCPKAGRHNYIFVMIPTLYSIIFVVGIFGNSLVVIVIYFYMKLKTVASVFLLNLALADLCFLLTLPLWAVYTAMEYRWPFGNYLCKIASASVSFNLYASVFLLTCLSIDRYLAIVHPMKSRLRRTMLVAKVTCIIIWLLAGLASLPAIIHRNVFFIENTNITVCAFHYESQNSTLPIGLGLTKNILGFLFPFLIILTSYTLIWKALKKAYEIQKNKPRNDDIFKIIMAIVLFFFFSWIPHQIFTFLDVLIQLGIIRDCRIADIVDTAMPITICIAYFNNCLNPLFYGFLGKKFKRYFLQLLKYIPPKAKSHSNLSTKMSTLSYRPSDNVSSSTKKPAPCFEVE
- procedure-summary: BRET β-arrestin2 biosensor assay, higher receptor expression (hAT1R 5 ng/well), HEK293 cells
- Format: cell-based
measured-quantity: BRET β-Arrestin2 High AT1R Expression Ymax (%)
Unit % implied. Number only.

CCCCc1nc(Cl)c(C(=O)O)n1Cc1ccc(-c2cc(-c3cccc(C(F)F)n3)ccc2-c2nn[nH]n2)cc1 73.3
CCCCC1=NC2(CCCC2)C(=O)N1Cc1ccc(-c2cc(-c3cc(OC)ccn3)ccc2-c2nn[nH]n2)cc1 88.6
CCc1nc2c(C)cc(C)nc2n1Cc1ccc(-c2cc(N(C)c3ccccc3)ccc2-c2nn[nH]n2)cc1 76.8

Lab note: next molecule to report on.
Entry CCCCc1nc(Cl)c(C(N)=O)n1Cc1ccc(-c2cc(-c3ccccc3)ccc2-c2nn[nH]n2)cc1 , BRET β-Arrestin2 High AT1R Expression Ymax (%) reported as 86.1

----------
- target-system: AGTR1 (Homo sapiens)
- Construct: host or cells: Pathunter CHO-K1 AGTR1 β-arrestin cell line (CHO-K1)
- Sequence (P30556 whole entry): as above
- procedure-summary: DiscoveRx IP1 accumulation assay (HTRF), agonist mode, Pathunter CHO-K1 AGTR1 β-arrestin cell line
- Format: cell-based
- test-context: read-out: IP-1 EC50
Mark yes (1) for EC50 under 100 nM, no (0) if at or over.

CCc1nc2c(C)cc(C)nc2n1Cc1ccc(-c2cc(Oc3ccccc3F)ccc2-c2nnn[nH]2)cc1 yes (1)
CCCCc1nc(Cl)c(CO)n1Cc1ccc(-c2cc(-c3ccccc3)ccc2-c2nnn[nH]2)cc1 no (0)
CCc1nc2c(C)cc(C)nc2n1Cc1ccc(-c2cc(Oc3ccccc3F)ccc2-c2noc(=O)[nH]2)cc1 yes (1)

In plain terms, does CCCCOC(=O)NS(=O)(=O)c1sc(-c2ccccc2)cc1-c1ccc(Cn2c(CC)nc3c(C)cc(C)nc32)cc1 come in under 100 nM for EC50?
yes (1)

In plain terms, does CCc1nc2c(C)cc(C)nc2n1Cc1ccc(-c2cc(-c3cccc(C)c3)ccc2C(=O)O)nc1 come in under 100 nM for EC50?
no (0)

In plain terms, does CCc1nc2c(C)cc(C)nc2n1Cc1ccc(-c2cc(-c3ccsn3)ccc2-c2nn[nH]n2)cc1 come in under 100 nM for EC50?
no (0)
